Assay: in vivo
Conditions: pigmented, rabbit, plasma, topical, 0.25 % w/v
OBSERVED_PROPERTY: concentration at 5 day

[in] # concentration at 5 day lookup, item COc1cc2nccc(Oc3ccc(NC(=O)C4(C(=O)Nc5ccc(F)cc5)CC4)cc3)c2cc1OC [cabozantinib]
[out] < 12.5 ng/mL
